# Post-emerge phytotoxicity rating RICE (crop damage) values compiled below
Test system: upland rice (Oryza sp., var. Tebonnet, RICE)
Assay: Post-emerge test, crop safety
Assay type: in vivo
Settings: Rate 250 g ai/ha; rating scale 0-100 (0 no damage, 100 complete death); 14 days after application

Worked cases, Post-emerge phytotoxicity rating RICE (crop damage) given:
1. COc1c(Cl)cc(F)c(-n2c(=O)cc(C(F)(F)F)n(C)c2=O)c1CC(Cl)C(=O)OCC(Br)CBr (single isomer, unassigned) [14-31]	0
2. CCCOC(=O)C(Cl)Cc1c(OC)c(Cl)cc(F)c1-n1c(=O)cc(C(F)(F)F)n(C)c1=O (single isomer, unassigned) [14-6]	35
3. CCOC(=O)C(Cl)(C#N)Cc1c(OC)c(Cl)cc(F)c1-n1c(=O)cc(C(F)(F)F)n(C)c1=O (stereo not drawn) [14-51]	0
4. COc1c(Cl)cc(F)c(-n2c(=O)cc(C(F)(F)F)n(C)c2=O)c1CC(Cl)C(=O)OCC(F)(F)C(F)F (stereo not drawn) [14-22]	10
5. COc1c(Cl)cc(F)c(-n2c(=O)cc(C(F)(F)F)n(C)c2=O)c1CC(C)(Cl)C(=O)OCC1CCCO1 (stereo not drawn) [14-49]	95

Qu. Supply recorded Post-emerge phytotoxicity rating RICE (crop damage) for COc1c(Cl)cc(F)c(-n2c(=O)cc(C(F)(F)F)n(C)c2=O)c1CC(Cl)C(=O)OCC(F)(F)C(F)(F)C(F)(F)F (single isomer, unassigned) [14-24] here.
Ans. 50

Qu. Supply recorded Post-emerge phytotoxicity rating RICE (crop damage) for CCCCCOC(=O)C(C)(Cl)Cc1c(OC)c(Cl)cc(F)c1-n1c(=O)cc(C(F)(F)F)n(C)c1=O (stereo not drawn) [14-37] here.
Ans. 100

Qu. Supply recorded Post-emerge phytotoxicity rating RICE (crop damage) for CCOC(=O)C(Cl)(CC(=O)OC)Cc1c(OC)c(Cl)cc(F)c1-n1c(=O)cc(C(F)(F)F)n(C)c1=O (stereo not drawn) [14-50] here.
Ans. 50

Qu. Supply recorded Post-emerge phytotoxicity rating RICE (crop damage) for C=COC(=O)C(C)(Cl)Cc1c(OC)c(Cl)cc(F)c1-n1c(=O)cc(C(F)(F)F)n(C)c1=O (stereo not drawn) [14-42] here.
Ans. 100

Qu. Supply recorded Post-emerge phytotoxicity rating RICE (crop damage) for C#CCOC(=O)C(C)(Cl)Cc1c(OC)c(Cl)cc(F)c1-n1c(=O)cc(C(F)(F)F)n(C)c1=O (stereo not drawn) [14-44] here.
Ans. 100

Qu. Supply recorded Post-emerge phytotoxicity rating RICE (crop damage) for CCOC(=O)C(Cl)Cc1c(C)c(Cl)cc(F)c1-n1c(=O)cc(C(F)(F)F)n(C)c1=O (stereo not drawn) [14-54] here.
Ans. 10

Qu. Supply recorded Post-emerge phytotoxicity rating RICE (crop damage) for C#CCOC(=O)C(Cl)Cc1c(OC)c(Cl)cc(F)c1-n1c(=O)cc(C(F)(F)F)n(C)c1=O (single isomer, unassigned) [14-20] here.
Ans. 10

Qu. Supply recorded Post-emerge phytotoxicity rating RICE (crop damage) for CCOC(=O)C(Cl)Cc1cc(Cl)cc(F)c1-n1nc(C)n(C(F)F)c1=O (stereo not drawn) [14-52] here.
Ans. 0

Qu. Supply recorded Post-emerge phytotoxicity rating RICE (crop damage) for COc1c(Cl)cc(F)c(-n2c(=O)cc(C(F)(F)F)n(C)c2=O)c1CC(C)(Cl)C(=O)OC(C)C (stereo not drawn) [14-39] here.
Ans. 100

Qu. Supply recorded Post-emerge phytotoxicity rating RICE (crop damage) for COc1c(Cl)cc(F)c(-n2c(=O)cc(C(F)(F)F)n(C)c2=O)c1CC(Cl)C(=O)OCC(F)(F)C(F)(F)C(F)(F)F (single isomer, unassigned) [14-23] here.
Ans. 20
